# System: mouse fibroblast I154F cell lines
# assay_explanation: Rescue of viability of murine I154F fibroblasts treated with FAC+BSO
# measurement_parameters: tested at 40 μM; 1 = oleic acid, 0.5 = no rescue, <0.5 toxic
Each item that follows carries a reported Relative to Oleic Acid.
readout_type: Relative to Oleic Acid

[
  {
    "compound": "CCCCCCCC/C=C\\CCCCCCCC(=O)OCC",
    "readout_type": "Relative to Oleic Acid",
    "numeric_value": 0.77
  },
  {
    "compound": "CCCCCCCC/C=C\\CCCCCCCCCCCC(=O)O",
    "readout_type": "Relative to Oleic Acid",
    "numeric_value": 0.93
  },
  {
    "compound": "CCCCCCCCCC/C=C\\CCCCCCCC(=O)O",
    "readout_type": "Relative to Oleic Acid",
    "numeric_value": 0.77
  },
  {
    "compound": "CCCCCCCCCC(=O)O",
    "readout_type": "Relative to Oleic Acid",
    "numeric_value": 0.49
  },
  {
    "compound": "CCCCCC/C=C\\CCCCCCCC(=O)O",
    "readout_type": "Relative to Oleic Acid",
    "numeric_value": 0.77
  },
  {
    "compound": "CCCCCCCCCCCCCCCCCC(=O)O",
    "readout_type": "Relative to Oleic Acid",
    "numeric_value": 0.50
  },
  {
    "compound": "CCCCCCCC/C=C/CCCCCCCC(=O)O",
    "readout_type": "Relative to Oleic Acid",
    "numeric_value": 0.30
  },
  {
    "compound": "CCCCCCCCCCCC(=O)O",
    "readout_type": "Relative to Oleic Acid",
    "numeric_value": 0.47
  },
  {
    "compound": "CCCCCC/C=C\\CCCCCCCCCC(=O)O [Cis-Vaccenic Acid]",
    "readout_type": "Relative to Oleic Acid",
    "numeric_value": 1.00
  },
  {
    "compound": "CCCCCCCC/C=C\\CCCCCCCC(=O)O",
    "readout_type": "Relative to Oleic Acid",
    "numeric_value": 1.03
  },
  {
    "compound": "CCCCCCCCCCC/C=C\\CCCCC(=O)O",
    "readout_type": "Relative to Oleic Acid",
    "numeric_value": 0.74
  },
  {
    "compound": "CCCCCCCCCCCCCC(=O)O",
    "readout_type": "Relative to Oleic Acid",
    "numeric_value": 0.11
  },
  {
    "compound": "CCCCCCCC/C=C\\CCCCCCCC(=O)OC",
    "readout_type": "Relative to Oleic Acid",
    "numeric_value": 0.95
  },
  {
    "compound": "CCCCCCCCCCCCCCCC(=O)O",
    "readout_type": "Relative to Oleic Acid",
    "numeric_value": 0.18
  },
  {
    "compound": "CCCCC/C=C\\C/C=C\\C/C=C\\CCCCC(=O)O",
    "readout_type": "Relative to Oleic Acid",
    "numeric_value": 0.16
  },
  {
    "compound": "CCCCCCCC/C=C\\CCCCCCCC(N)=O",
    "readout_type": "Relative to Oleic Acid",
    "numeric_value": 0.79
  }
]
